- Subject of test: OsWRKY34 (Oryza sativa, UniProt Q0JBA9 1-250)
- Sequence (Q0JBA9 entry or part of it): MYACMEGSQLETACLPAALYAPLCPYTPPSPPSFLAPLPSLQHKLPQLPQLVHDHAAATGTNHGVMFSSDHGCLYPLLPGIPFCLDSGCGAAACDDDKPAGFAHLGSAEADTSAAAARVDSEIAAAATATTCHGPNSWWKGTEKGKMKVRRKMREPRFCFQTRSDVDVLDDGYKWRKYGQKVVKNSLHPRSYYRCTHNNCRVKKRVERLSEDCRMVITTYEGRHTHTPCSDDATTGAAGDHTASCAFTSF
- Protocol details: protein-binding microarray (RPBM); PBS, 2% BSA, 51.3 ng/ul salmon testes DNA, 50 uM zinc acetate, 200 nM TF, 25 C, 1 h; high values mean tight binding
- Condition info: protein: recombinant; tags: N-terminal polyhistidine and DsRed monomer fusion (pET32a); label: CyDye5-dUTP incorporated in the synthesized complementary strand; 3' TTTTT single-stranded linker to array surface; dsDNA, one strand shown
In all, about 68,000 sequences were measured (“fluorescence intensity (a.u.)”: median about 9,100, highest 2% from about 16,000 on). What follows is part of a selection rich in the highest values, with near analogues and random picks from the rest.
Listed sequences paired with reported binding signal
Assay readout: binding signal

Item sequence	Recorded measurement
GAACGTCTGGACGTTGGAACACTCCATGTTTTTGTCTGATCGGAGTCACCTAGTGCAG	8740 fluorescence intensity (a.u.)
GTGGGATTCGCCTGCTTGCTTGCTGGGGCCTTGGGAAATGCGGAGTCACCTAGTGCAG	8230 fluorescence intensity (a.u.)
ACGAATGGTCAAACATGTGAGGAAAAGTCAACGGCGTCATCGGAGTCACCTAGTGCAG	13400 fluorescence intensity (a.u.)
AATGGCTAGCGTATAATCTGTCTTGGAATCACTTTGCTGCCGGAGTCACCTAGTGCAG	8120 fluorescence intensity (a.u.)
GGATTGGGGAGTGATTCGGTTTGTTCTTGATTTTGATTTTCGGAGTCACCTAGTGCAG	15700 fluorescence intensity (a.u.)
GCTTGGTCCATACCTTGTTTTCCTATCATCCACTGTCAATCGGAGTCACCTAGTGCAG	9390 fluorescence intensity (a.u.)
CAATTTCGAGCTTCGTATCAGCATATGCTATTCCCTATTGCGGAGTCACCTAGTGCAG	10500 fluorescence intensity (a.u.)
TAAGACGAATGGTCAAACATGTAAGAAAAAGTCAACGGTACGGAGTCACCTAGTGCAG	12900 fluorescence intensity (a.u.)
ACGATCAGTGTCATCACAGGGCGGCGGGGTTCCTATCCATCGGAGTCACCTAGTGCAG	13200 fluorescence intensity (a.u.)
CCAGTGGTGGAGTGGAGTGGTGGTGGGGAGACGTGAGGAGCGGAGTCACCTAGTGCAG	8630 fluorescence intensity (a.u.)
TTTTTTTCTCTTTCTTTTTTCTTTTCTTCGTTTTCTTTCACGGAGTCACCTAGTGCAG	9230 fluorescence intensity (a.u.)
AACGGTCAAATATGTGCTAAAAAGTCAACGGTGTCAAATACGGAGTCACCTAGTGCAG	11300 fluorescence intensity (a.u.)
CGCATCTCGTTTTCTCTTTATTTGTTTCTTCTTTCGCTTTCGGAGTCACCTAGTGCAG	13800 fluorescence intensity (a.u.)
TCTTGATTGGTTGTTTTGGTTTGTTTCTTATTTATGTTTGCGGAGTCACCTAGTGCAG	8920 fluorescence intensity (a.u.)
GATGTGAATCACCCTTTGCTTTGCTGAATCTACTCCTACACGGAGTCACCTAGTGCAG	10600 fluorescence intensity (a.u.)
ATGGTCAAACATGTGCTAAAAAGTCAACGGTGTCAAACATCGGAGTCACCTAGTGCAG	17700 fluorescence intensity (a.u.)
AGTCAAATTTGTTTTTTTTCGTTGCAACTTGTATAATTTACGGAGTCACCTAGTGCAG	9430 fluorescence intensity (a.u.)
GAACGGTCAAACATGTGCTAAAAAGTCAACGGTGTCAAACCGGAGTCACCTAGTGCAG	10100 fluorescence intensity (a.u.)
ATCTCTTTCATCCGATTACTGTGTTTTTTCTGTGGTCCAACGGAGTCACCTAGTGCAG	8410 fluorescence intensity (a.u.)
ATTTTTATAGTATTACATCTACGTGTAAAGTTTCATCTTTCGGAGTCACCTAGTGCAG	8260 fluorescence intensity (a.u.)
CACTGCCACTCGCCACCCAGCTCCGTCCTATGCCTCCGCGCGGAGTCACCTAGTGCAG	12400 fluorescence intensity (a.u.)
GTTCTTTTGGGCAATCTCGTCTGTATTCCTTTGTCGTCTACGGAGTCACCTAGTGCAG	10800 fluorescence intensity (a.u.)
CCAGCCCACTGATTCCTCACCGAATTTTTTCATTTTTTTTCGGAGTCACCTAGTGCAG	9700 fluorescence intensity (a.u.)
TTTATTCTCTGTTCCTCTTTTTTTCATATTCGTTTTTCACCGGAGTCACCTAGTGCAG	13200 fluorescence intensity (a.u.)
ATGGTCAAACATGTGAGAAAAAGTCAACGGCGTCATCTATCGGAGTCACCTAGTGCAG	19600 fluorescence intensity (a.u.)
TCTTTTGTCACATCTTTATAATATTGCCCATGGCACATACCGGAGTCACCTAGTGCAG	8490 fluorescence intensity (a.u.)
AATGGTCAAACATGTGAGAAAAAGTCAACGGCGTTATCTACGGAGTCACCTAGTGCAG	15500 fluorescence intensity (a.u.)
GACACTGCCACCTCACTCTCCACTCCACTATATATACCCTCGGAGTCACCTAGTGCAG	12100 fluorescence intensity (a.u.)
TTTTCTATACTGTATTTTGTGTCATTTTCAATCATTGATTCGGAGTCACCTAGTGCAG	14400 fluorescence intensity (a.u.)
ATTGTCTTGGCTGCTGTCTTTATAGTATTCACTCATCTGCCGGAGTCACCTAGTGCAG	18500 fluorescence intensity (a.u.)
GGGCGGGTTTGGATTTTTATTTGGTTTTCCTATGGAGTCCCGGAGTCACCTAGTGCAG	17800 fluorescence intensity (a.u.)
ATGACGTCCAAAGCTTCACCTTTTTTTTTATATATAAACCCGGAGTCACCTAGTGCAG	8260 fluorescence intensity (a.u.)

Hey, just so you know, these numbers are from paper PMC7819943.
